# tested-system: Gonadotropin-releasing hormone receptor (Rattus norvegicus) (UniProt P30969)
# Sequence (whole entry): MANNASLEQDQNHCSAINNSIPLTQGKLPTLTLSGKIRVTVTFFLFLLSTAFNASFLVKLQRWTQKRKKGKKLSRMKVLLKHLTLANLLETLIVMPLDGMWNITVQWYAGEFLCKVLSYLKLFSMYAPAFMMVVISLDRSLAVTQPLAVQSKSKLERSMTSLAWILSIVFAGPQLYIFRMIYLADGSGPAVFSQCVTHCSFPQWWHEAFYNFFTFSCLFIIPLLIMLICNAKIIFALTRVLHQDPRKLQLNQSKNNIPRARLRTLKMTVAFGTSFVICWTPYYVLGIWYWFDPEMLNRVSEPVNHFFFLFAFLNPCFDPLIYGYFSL
# experiment-summary: In vitro inhibition of LH release was determined in rat pituitary cells at a dose of 10 ug of analogue and 1 ng of LHRH
# Assay type: functional, cell-based
# assay-context: Pituitary gland cell
Square brackets hold non-standard residues; d marks the D form. Peptide text beside a SMILES is read from it. * marks the point of attachment. ξ: configuration not given here. 2Nal = N[C@@H](Cc1ccc2ccccc2c1)C(=O)O; ξLys(iPr) = CC(C)NCCCCC(N)C(=O)O; Picolinoyl = O=C(c1ccccn1)*; ξR = N=C(N)NCCCC(N)C(=O)O
# TRUE = Activity below 100 (exclusive); FALSE = Activity at/above 100

Example results:
- molecule: "CC(=O)N[C@@H](Cc1ccc2ccccc2c1)C(=O)N[C@@H](CCCCNC(=O)c1ccccn1)C(=O)NC(CCCCNC(C)C)C(=O)N1CCC[C@H]1C(N)=O (stereo partly drawn) (Ac-[2Nal]K(Picolinoyl)[ξLys(iPr)]P-NH2)"
  tested-system: "Gonadotropin-releasing hormone receptor (Rattus norvegicus) (UniProt P30969)"
  qualitative-label: "FALSE"
- molecule: "CCNC(=O)[C@@H]1CCCN1C(=O)[C@H](CC(C)C)NC(=O)[C@H](Cc1ccc2ccccc2c1)NC(=O)[C@H](Cc1ccc(O)cc1)NC(=O)[C@H](CO)NC(=O)[C@H](Cc1ccc2ccccc2c1)NC(C)=O (Ac-[2Nal]SY[2Nal]LP-NHEt)"
  tested-system: "Gonadotropin-releasing hormone receptor (Rattus norvegicus) (UniProt P30969)"
  qualitative-label: "TRUE"
- molecule: "CC(=O)NC(Cc1ccc2ccccc2c1)C(=O)N[C@@H](CCCCNC(=O)c1ccccn1)C(=O)N[C@@H](CCCN=C(N)N)C(=O)NC(C)C(N)=O (single isomer, unassigned)"
  tested-system: "Gonadotropin-releasing hormone receptor (Rattus norvegicus) (UniProt P30969)"
  qualitative-label: "TRUE"
- molecule: "CC(=O)N[C@@H](Cc1ccc2ccccc2c1)C(=O)N[C@@H](CCCCNC(=O)c1ccccn1)C(=O)NC(CCCN=C(N)N)C(=O)N1CCC[C@H]1C(N)=O (stereo partly drawn) (Ac-[2Nal]K(Picolinoyl)[ξR]P-NH2)"
  tested-system: "Gonadotropin-releasing hormone receptor (Rattus norvegicus) (UniProt P30969)"
  qualitative-label: "FALSE"
- molecule: "CC(=O)N[C@@H](Cc1ccc2ccccc2c1)C(=O)N[C@@H](Cc1ccc(O)cc1)C(=O)N[C@@H](Cc1ccc2ccccc2c1)C(=O)N[C@@H](CCCN=C(N)N)C(=O)N[C@@H](C)C(N)=O (Ac-[2Nal]Y[2Nal]RA-NH2)"
  tested-system: "Gonadotropin-releasing hormone receptor (Rattus norvegicus) (UniProt P30969)"
  qualitative-label: "FALSE"

Find out if reported Activity for CC(=O)N[C@@H](Cc1ccc2ccccc2c1)C(=O)N[C@@H](C)C(N)=O (Ac-[2Nal]-Ala-NH2) is less than 100
FALSE

Find out if reported Activity for CCNC(=O)[C@@H]1CCCN1C(=O)[C@H](CCCN=C(N)N)NC(=O)[C@H](CC(C)C)NC(=O)[C@H](Cc1ccc2ccccc2c1)NC(C)=O (Ac-[2Nal]LRP-NHEt) is less than 100
TRUE

Find out if reported Activity for CC(=O)N[C@@H](Cc1ccc2ccccc2c1)C(=O)NC(CCCCNC(=O)c1ccccn1)C(=O)N[C@@H](CCCCNC(=O)c1ccccn1)C(=O)NC(CCCN=C(N)N)C(=O)NC(C)C(N)=O (stereo in doubt) is less than 100
FALSE

Find out if reported Activity for CC(=O)N[C@@H](Cc1ccc2ccccc2c1)C(=O)N[C@@H](CC(C)C)C(=O)N[C@@H](CCCN=C(N)N)C(=O)N[C@@H](C)C(N)=O (Ac-[2Nal]LRA-NH2) is less than 100
FALSE

Find out if reported Activity for CC(=O)N[C@@H](Cc1ccc2ccccc2c1)C(=O)N[C@@H](CCCCNC(=O)c1ccccn1)C(=O)N1CCC[C@H]1C(N)=O is less than 100
FALSE

Find out if reported Activity for CCNC(=O)[C@@H]1CCCN1C(=O)[C@H](CCCN=C(N)N)NC(=O)[C@H](CC(C)C)NC(=O)[C@H](Cc1ccc2ccccc2c1)NC(=O)[C@H](Cc1ccc2ccccc2c1)NC(C)=O (Ac-[2Nal][2Nal]LRP-NHEt) is less than 100
FALSE
